System: Staphylococcus aureus PB1509
Construct: PB1509
Experiment: microbe, parasite or virus in culture
Design: Broth microdilution MIC in cation-adjusted MHB-Ca2+, growth inhibition per EUCAST reading
Settings: PB1509, 16 h, replicate 1
Protocol: MICs were measured in cation-adjusted Mueller-Hinton broth (MHB) supplemented with 50 μg/mL CaCl2 (MHB-Ca^2+) via broth microdilution in 96-well plates with an inoculum of ∼5 × 10^5 CFU per mL. Antibiotic test concentrations ranged from 0.0625 μg/mL to 32 μg/mL by 2-fold dilutions. Plates were incubated at 37°C for 16 h without shaking, and results were interpreted in accordance with European Committee on Antimicrobial Susceptibility Testing reading guidelines ([72]). […]
What MIC was measured for each of the following?
Reply with just the number (in µg/mL).

In plain terms, CCO/N=C(\C(=O)N[C@@H]1C(=O)N2C(C(=O)[O-])=C(Sc3nc(-c4cc[n+](C)cc4)cs3)CS[C@H]12)c1nsc(N)n1 [Ceftaroline] has a documented MIC of 0.5

Looking up CN[C@H](CC(C)C)C(=O)N[C@H]1C(=O)N[C@@H](CC(N)=O)C(=O)N[C@H]2C(=O)N[C@H]3C(=O)N[C@H](C(=O)N[C@H](C(=O)O)c4cc(O)cc(O)c4-c4cc3ccc4O)[C@H](O)c3ccc(c(Cl)c3)Oc3cc2cc(c3O[C@@H]2O[C@H](CO)[C@@H](O)[C@H](O)[C@H]2O[C@H]2C[C@](C)(N)[C@H](O)[C@H](C)O2)Oc2ccc(cc2Cl)[C@H]1O [Vancomycin] , I see its MIC listed as 2

For CCCCCCCCCC(=O)N[C@@H](Cc1c[nH]c2ccccc12)C(=O)N[C@H](CC(N)=O)C(=O)N[C@@H](CC(=O)O)C(=O)N[C@@H]1C(=O)NCC(=O)N[C@@H](CCCN)C(=O)N[C@@H](CC(=O)O)C(=O)N[C@H](C)C(=O)N[C@@H](CC(=O)O)C(=O)NCC(=O)N[C@H](CO)C(=O)N[C@@H]([C@H](C)CC(=O)O)C(=O)N[C@@H](CC(=O)c2ccccc2N)C(=O)O[C@@H]1C [Daptomycin] the molecule record lists MIC as 2

Sample CC(=O)NC[C@H]1CN(c2ccc(N3CCOCC3)c(F)c2)C(=O)O1 [Linezolid] ; MIC observed: 4

----------
Tested on: Staphylococcus aureus PB0903
Construct: PB0903
Assay: microbe, parasite or virus in culture
Design: Broth microdilution MIC in cation-adjusted MHB-Ca2+, growth inhibition per EUCAST reading
Details: PB0903, 16 h, replicate 2
What MIC was measured for each of the following?
Dear colleague, please return just the value in µg/mL, with no unit written.

get_value(item= `CC(=O)NC[C@H]1CN(c2ccc(N3CCOCC3)c(F)c2)C(=O)O1` , readout=MIC) returns 4

The compound identified as `CN[C@H](CC(C)C)C(=O)N[C@H]1C(=O)N[C@@H](CC(N)=O)C(=O)N[C@H]2C(=O)N[C@H]3C(=O)N[C@H](C(=O)N[C@H](C(=O)O)c4cc(O)cc(O)c4-c4cc3ccc4O)[C@H](O)c3ccc(c(Cl)c3)Oc3cc2cc(c3O[C@@H]2O[C@H](CO)[C@@H](O)[C@H](O)[C@H]2O[C@H]2C[C@](C)(N)[C@H](O)[C@H](C)O2)Oc2ccc(cc2Cl)[C@H]1O` registered its MIC at 2

Field MIC (entry `CCO/N=C(\C(=O)N[C@@H]1C(=O)N2C(C(=O)[O-])=C(Sc3nc(-c4cc[n+](C)cc4)cs3)CS[C@H]12)c1nsc(N)n1` ) reads 0.5

Record `CCCCCCCCCC(=O)N[C@@H](Cc1c[nH]c2ccccc12)C(=O)N[C@H](CC(N)=O)C(=O)N[C@@H](CC(=O)O)C(=O)N[C@@H]1C(=O)NCC(=O)N[C@@H](CCCN)C(=O)N[C@@H](CC(=O)O)C(=O)N[C@H](C)C(=O)N[C@@H](CC(=O)O)C(=O)NCC(=O)N[C@H](CO)C(=O)N[C@@H]([C@H](C)CC(=O)O)C(=O)N[C@@H](CC(=O)c2ccccc2N)C(=O)O[C@@H]1C` . Reported MIC: 2

----------
Provide the reported MIC of each item.
System: Staphylococcus aureus PB0113
Construct: PB0113
Test: microbe, parasite or virus in culture
Set-up: Broth microdilution MIC in cation-adjusted MHB-Ca2+, growth inhibition per EUCAST reading
Conditions: PB0113, 16 h, replicate 2
Description: MICs were measured in cation-adjusted Mueller-Hinton broth (MHB) supplemented with 50 μg/mL CaCl2 (MHB-Ca^2+) via broth microdilution in 96-well plates with an inoculum of ∼5 × 10^5 CFU per mL. Antibiotic test concentrations ranged from 0.0625 μg/mL to 32 μg/mL by 2-fold dilutions. Plates were incubated at 37°C for 16 h without shaking, and results were interpreted in accordance with European Committee on Antimicrobial Susceptibility Testing reading guidelines ([72]). […]
A number alone suffices; assume µg/mL.

So for CC(=O)NC[C@H]1CN(c2ccc(N3CCOCC3)c(F)c2)C(=O)O1 [Linezolid] , the logged MIC turned out to be 4

CCO/N=C(\C(=O)N[C@@H]1C(=O)N2C(C(=O)[O-])=C(Sc3nc(-c4cc[n+](C)cc4)cs3)CS[C@H]12)c1nsc(N)n1 [Ceftaroline] yielded MIC of 0.5

For reference, reported MIC for CCCCCCCCCC(=O)N[C@@H](Cc1c[nH]c2ccccc12)C(=O)N[C@H](CC(N)=O)C(=O)N[C@@H](CC(=O)O)C(=O)N[C@@H]1C(=O)NCC(=O)N[C@@H](CCCN)C(=O)N[C@@H](CC(=O)O)C(=O)N[C@H](C)C(=O)N[C@@H](CC(=O)O)C(=O)NCC(=O)N[C@H](CO)C(=O)N[C@@H]([C@H](C)CC(=O)O)C(=O)N[C@@H](CC(=O)c2ccccc2N)C(=O)O[C@@H]1C [Daptomycin] stands at 1

MIC reading for CN[C@H](CC(C)C)C(=O)N[C@H]1C(=O)N[C@@H](CC(N)=O)C(=O)N[C@H]2C(=O)N[C@H]3C(=O)N[C@H](C(=O)N[C@H](C(=O)O)c4cc(O)cc(O)c4-c4cc3ccc4O)[C@H](O)c3ccc(c(Cl)c3)Oc3cc2cc(c3O[C@@H]2O[C@H](CO)[C@@H](O)[C@H](O)[C@H]2O[C@H]2C[C@](C)(N)[C@H](O)[C@H](C)O2)Oc2ccc(cc2Cl)[C@H]1O [Vancomycin] : 2

----------
Tested on: Staphylococcus aureus PB0113
Construct: PB0113
Experiment: microbe, parasite or virus in culture
Design: Broth microdilution MIC in cation-adjusted MHB-Ca2+, growth inhibition per EUCAST reading
Conditions: PB0113, 16 h, replicate 1
Procedure: MICs were measured in cation-adjusted Mueller-Hinton broth (MHB) supplemented with 50 μg/mL CaCl2 (MHB-Ca^2+) via broth microdilution in 96-well plates with an inoculum of ∼5 × 10^5 CFU per mL. Antibiotic test concentrations ranged from 0.0625 μg/mL to 32 μg/mL by 2-fold dilutions. Plates were incubated at 37°C for 16 h without shaking, and results were interpreted in accordance with European Committee on Antimicrobial Susceptibility Testing reading guidelines ([72]). […]
metric: MIC (µg/mL)
Dear colleague, please return just the value in µg/mL, with no unit written.

Memo: `CCCCCCCCCC(=O)N[C@@H](Cc1c[nH]c2ccccc12)C(=O)N[C@H](CC(N)=O)C(=O)N[C@@H](CC(=O)O)C(=O)N[C@@H]1C(=O)NCC(=O)N[C@@H](CCCN)C(=O)N[C@@H](CC(=O)O)C(=O)N[C@H](C)C(=O)N[C@@H](CC(=O)O)C(=O)NCC(=O)N[C@H](CO)C(=O)N[C@@H]([C@H](C)CC(=O)O)C(=O)N[C@@H](CC(=O)c2ccccc2N)C(=O)O[C@@H]1C` , reported MIC: 1

Quick note, MIC for `CC(=O)NC[C@H]1CN(c2ccc(N3CCOCC3)c(F)c2)C(=O)O1` landed at 4

The compound identified as `CN[C@H](CC(C)C)C(=O)N[C@H]1C(=O)N[C@@H](CC(N)=O)C(=O)N[C@H]2C(=O)N[C@H]3C(=O)N[C@H](C(=O)N[C@H](C(=O)O)c4cc(O)cc(O)c4-c4cc3ccc4O)[C@H](O)c3ccc(c(Cl)c3)Oc3cc2cc(c3O[C@@H]2O[C@H](CO)[C@@H](O)[C@H](O)[C@H]2O[C@H]2C[C@](C)(N)[C@H](O)[C@H](C)O2)Oc2ccc(cc2Cl)[C@H]1O` registered its MIC at 2

// MIC lookup, compound = `CCO/N=C(\C(=O)N[C@@H]1C(=O)N2C(C(=O)[O-])=C(Sc3nc(-c4cc[n+](C)cc4)cs3)CS[C@H]12)c1nsc(N)n1` , result: 0.5

----------
Would you mind telling me the reported MIC of each entry?
Tested on: Staphylococcus aureus PB1512
Construct: PB1512
Test: microbe, parasite or virus in culture
Parameters: species or system Staphylococcus aureus clinical blood isolates and ATCC 29213; Broth microdilution MIC in cation-adjusted Mueller-Hinton broth with 50 ug/mL CaCl2, EUCAST reading, 37 C
Details: PB1512, 16 h, replicate MIC, MHB + 50 ug/mL CaCl2
Reply numerically in µg/mL, unit not repeated.

Measured MIC of CN[C@H](CC(C)C)C(=O)N[C@H]1C(=O)N[C@@H](CC(N)=O)C(=O)N[C@H]2C(=O)N[C@H]3C(=O)N[C@H](C(=O)N[C@H](C(=O)O)c4cc(O)cc(O)c4-c4cc3ccc4O)[C@H](O)c3ccc(c(Cl)c3)Oc3cc2cc(c3O[C@@H]2O[C@H](CO)[C@@H](O)[C@H](O)[C@H]2O[C@H]2C[C@](C)(N)[C@H](O)[C@H](C)O2)Oc2ccc(cc2Cl)[C@H]1O [Vancomycin] : 2

# MIC of CCCCCCCCCC(=O)N[C@@H](Cc1c[nH]c2ccccc12)C(=O)N[C@H](CC(N)=O)C(=O)N[C@@H](CC(=O)O)C(=O)N[C@@H]1C(=O)NCC(=O)N[C@@H](CCCN)C(=O)N[C@@H](CC(=O)O)C(=O)N[C@H](C)C(=O)N[C@@H](CC(=O)O)C(=O)NCC(=O)N[C@H](CO)C(=O)N[C@@H]([C@H](C)CC(=O)O)C(=O)N[C@@H](CC(=O)c2ccccc2N)C(=O)O[C@@H]1C [Daptomycin] = 1

The recorded MIC for entry CCO/N=C(\C(=O)N[C@@H]1C(=O)N2C(C(=O)[O-])=C(Sc3nc(-c4cc[n+](C)cc4)cs3)CS[C@H]12)c1nsc(N)n1 [Ceftaroline] equals 0.5

Consider CC(=O)NC[C@H]1CN(c2ccc(N3CCOCC3)c(F)c2)C(=O)O1 [Linezolid] . Its measured MIC is 4
